- ASSAY DETAILS: Pharmacokinetic assessment in mouse plasma (LC-MS/MS)
- Format: in vivo
- CONDITIONS: oral, 25 mg/kg, dose 25 mpk, read-out: AUC0–8h
- Description: For the determination of ITF6475 in mouse plasma (n. 3 mice/group), aliquots of 20 µL of samples were deproteinized by adding 300 µL of acetonitrile. […] Quantification of ITF6475 in the samples was carried out on a calibration curve in the range 1–1000 ng/mL. Quantification of Ricolinostat in mouse plasma was carried out on aliquots of 20 µL and deproteinized with 200 µL of acetonitrile. […]

MOLECULE	UNIT ABBREVIATION	AUC(0-t)
O=C(CCCCCCNC(=O)c1cnc(N(c2ccccc2)c2ccccc2)nc1)NO [ricolinostat]	ng·h/mL	124
